# test system: Procathepsin L (Homo sapiens)
# Sequence (P07711 whole entry): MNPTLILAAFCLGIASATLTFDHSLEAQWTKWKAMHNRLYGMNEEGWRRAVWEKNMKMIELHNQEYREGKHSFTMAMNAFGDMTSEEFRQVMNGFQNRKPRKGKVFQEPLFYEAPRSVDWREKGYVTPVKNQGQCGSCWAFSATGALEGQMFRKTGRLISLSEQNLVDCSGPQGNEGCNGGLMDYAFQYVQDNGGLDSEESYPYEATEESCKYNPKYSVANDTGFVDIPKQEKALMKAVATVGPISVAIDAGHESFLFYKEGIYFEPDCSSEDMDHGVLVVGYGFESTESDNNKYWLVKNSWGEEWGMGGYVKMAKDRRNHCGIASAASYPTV
# measurement description: Inhibition of human recombinant cathepsin L
pIC50: −log10 of the molar value.
readout type: pIC50

q: Please tell me the measured pIC50 for `CC(C)(NCCCc1cc(-c2cccc(C(F)(F)F)c2)nc(C#N)n1)C(N)=O` ; system: Procathepsin L (Homo sapiens).
a: < 5.00

---

# measurement description: Oral bioavailability in Beagle dog at 1.96 mg/kg
# stated conditions: in vivo
readout type: bioavailability (%)
Answer with a number only, understood to be in %.

q: Check the records and state bioavailability for `CC(C)(NCCCc1cc(-c2cccc(C(F)(F)F)c2)nc(C#N)n1)C(N)=O`
a: 29
